# experimental-target: T1, Rok-C114-185 K164A (Bacillus subtilis subsp. subtilis str. …, UniProt O34857 114-185, K164A)
# T1 sequence: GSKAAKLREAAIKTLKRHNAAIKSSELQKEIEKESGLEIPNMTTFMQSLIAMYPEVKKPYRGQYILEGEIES
# test-protocol: ITC; ITC: sodium phosphate buffer, 200 mM NaCl, pH 6, 277 K, 50 uM protein in cell titrated with 750 uM Seq1 DNA; PBM: buffer not stated
# condition-info: protein: recombinant; tags: C-terminal His6; blunt, self-complementary 18 bp
observed-property: Kd (µM)
Give the quantity in µM, number only.

Briefly, Kd measured for Seq1 (dsDNA) DNA 1: CTAATAACTAGTTATTAG DNA 2: CTAATAACTAGTTATTAG : 30.9

The reported measurements were obtained from paper PMC6212790.
